# Percent Cytotoxicity values compiled below
- System: HT-29 (colon)
- PROCEDURE TEXT: MTT cytotoxicity assay, 72 hours (Example 13)
- Type: cell-based, human
- EXPERIMENTAL PARAMETERS: HT29, 100 PM
- Method: The cytotoxic activity of other synthesized bombesin analogs was tested on eight human tumor cell lines namely HT-29, SW620, PTC (all colon), PA-1 (ovary), A549 (lung), HBL100(breast), MOLT-4 (leukemia) and DU145 (prostate). The tumor cells were collected at exponential growth phase and resuspended in medium (1.5×10^6) cells/ml in RPMI 1640 containing 10% FBS). 150 μl of medium was added to the wells of a 96-well tissue culture plate (Nunc, Denmark) followed by 30 μl of cell suspension. […]
Non-standard residues stand in square brackets, D forms with d. Residues, ends and D or L forms follow the SMILES beside them. Aib = CC(C)(N)C(=O)O

CCCC(CCC)(NC(=O)[C@@H](NC(=O)[C@H](C)NC(=O)[C@@H](Cc1c[nH]c2ccccc12)NC(=O)[C@H](CCC(N)=O)NC(=O)[C@H](N)Cc1ccccc1)C(C)C)C(=O)N[C@@H](Cc1c[nH]cn1)C(=O)N[C@@H](CC(C)C)C(N)=O ... 21.4 ± 3.1%
CC(C)C[C@H](NC(=O)[C@H](Cc1c[nH]cn1)NC(=O)C(C)(C)NC(=O)[C@@H](NC(=O)[C@H](C)NC(=O)[C@@H](Cc1c[nH]c2ccccc12)NC(=O)[C@H](CCC(N)=O)NC(=O)[C@H](N)Cc1ccccc1)C(C)C)C(N)=O [SEQ ID: 5, D-Phe-Gln-D-Trp-Ala-Val-Aib-His-Leu-NH2] (H-[dF]Q[dW]AV[Aib]HL-NH2; N-terminus assumed) ... 42.0 ± 2.0%
CC(C)C[C@H](NC(=O)[C@H](Cc1c[nH]cn1)NC(=O)CNC(=O)[C@@H](NC(=O)C(C)(C)NC(=O)[C@H](Cc1c[nH]c2ccccc12)NC(=O)[C@H](CCC(N)=O)NC(=O)[C@H](N)Cc1ccccc1)C(C)C)C(N)=O [SEQ ID: 4, D-Phe-Gln-Trp-Aib-Val-Gly-His-Leu-NH2] (H-[dF]QW[Aib]VGHL-NH2; N-terminus assumed) ... 43.3 ± 4.4%

Moving on to the next compound.
// compound CC[C@H](C)[C@H](NC(=O)[C@H](Cc1c[nH]cn1)NC(=O)CNC(=O)[C@@H](NC(=O)C(C)(C)NC(=O)[C@H](Cc1c[nH]c2ccccc12)NC(=O)[C@H](CCC(N)=O)NC(=O)[C@H](N)Cc1ccccc1)C(C)C)C(N)=O [SEQ ID: 6, D-Phe-Gln-Trp-Aib-Val-Gly-His-Ile-NH2] (H-[dF]QW[Aib]VGHI-NH2; N-terminus assumed) , assay HT-29 (colon), Percent Cytotoxicity value: 16.8 ± 0.5%

The values you see were collected from patent US6989371B1.
